- experiment.description: NCI Yeast Anticancer Drug Screen. Data for the cln2 rad14 strain (AID 165);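 note: 0% = growth equal to vehicle treated cultures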
- measurement.parameters: S. cerevisiae cln2 rad14 strain; at 50.0 µM unless noted
Compounds without any hit were thinned out: in the full panel of roughly 79,000, 15% have a hit. Active and inactive are the calls of the source. Cut-off read from the data, not from the text of the source: active = growth inhibition above about 70%; inactive = the rest.
Use one of these outcomes when replying: active, inactive

{"molecule": "CCOc1cc(C=O)c2c(ccc3ccc(OC)c(OC)c32)c1OC", "discrete.label": "active"}
{"molecule": "Cc1nc2ccccc2c2ccc([N+](=O)[O-])cc12", "discrete.label": "inactive"}
{"molecule": "OC1COC(c2ccccc2)OC1 (stereo not given)", "discrete.label": "inactive"}
{"molecule": "CC(=O)CC(=O)NCC1CCC(CNC(=O)CC(C)=O)CC1 (stereo not given)", "discrete.label": "inactive"}
{"molecule": "CCCOC(=O)c1ccc(O)cc1.[Cu+2]", "discrete.label": "inactive"}
{"molecule": "NC(C=O)C(O)C(O)C(O)CO (stereo not given)", "discrete.label": "inactive"}

q: Which outcome was entered for the molecule CC1=C(C)CC2(CCCCC2=O)S(=O)C1 (stereo not given) in this test?
a: inactive

q: What do you get for CCOc1ccccc1NC(=O)C(=O)C(C(=O)c1ccc2ccccc2c1)C1OC(=O)c2ccccc21 (stereo not given) ?
a: inactive

q: And the next one, C/C(=N\NC(=S)Nc1nccs1)c1ccccn1 ?
a: active

q: Also, N#CC(c1ccccc1)c1ccc2ccccc2n1 (stereo not given) please.
a: inactive

q: Queued: OCC(O)C1OC(O)C(O)C(O)C1O (stereo not given)
a: inactive

* * *

- experiment.description: NCI Yeast Anticancer Drug Screen. Data for the sgs1 mgt1 strain (AID 161);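 note: 0% = growth of cultures given vehicle only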
- measurement.parameters: S. cerevisiae sgs1 mgt1 strain, hits give high values; at 50.0 µM unless noted
This is part of a sample that, as a whole, favours compounds with a hit. Of some 79,000 tested, about 15% had one in any assay.
measure.name: growth inhibition (%)
Give the value, in units of %, as a plain number.

// solved cases for growth inhibition follow
{"molecule": "CNC(=O)NCCCCC(NC(=O)OCc1ccccc1)C(=O)OCc1ccccc1 (configuration not stated)", "growth inhibition [%]": -37.2}
{"molecule": "COC1C(CO)OC(O)C(O)C1O (configuration not stated)", "growth inhibition [%]": -5.2}
{"molecule": "CC1=Nc2cc(Cl)c(Cl)cc2N(C)/C1=C/C1=C(Cl)C(=O)c2cc3c(Cl)ccc(Cl)c3cc2C1=O", "growth inhibition [%]": 13.1}
{"molecule": "CC1=CC(=O)CC(C)(C)C1", "growth inhibition [%]": -1.7}
{"molecule": "Cc1cc2c(c(C(=O)O)c1C)-c1cccc(Cl)c1C2=O", "growth inhibition [%]": -23.2}

Would you kindly look at the next entry?
q: Can you look up the measured growth inhibition of CCCCCCCCCCCCCCCCCCCCCCCCC(=O)O for me?
a: -11.4

* * *

- experiment.description: NCI Yeast Anticancer Drug Screen. Data for the mec2-1 strain (AID 157)
- measurement.parameters: S. cerevisiae mec2-1 strain, hits give high values; at 50.0 µM unless noted
About 79,000 compounds went through this panel and 15% of them were active in at least one assay; those are over-represented in the sample as a whole.
Below: a set of entries, each annotated with reported growth inhibition.
Write it as a number; the unit % goes unstated.

{"compound": "CCOC(=O)C1=C(c2ccccc2)OC(N)=C(C#N)C1c1ccccc1Cl (configuration not stated)", "unit.abbreviation": "%", "recorded.number": 18.7}
{"compound": "NNc1nc(N2CCCCC2)c2[nH]cnc2n1", "unit.abbreviation": "%", "recorded.number": -7.65}

q: Could you tell me which growth inhibition is on file for CCCCCCCCCCCCCCCC[N+](C)(C)CC#N ?
a: 99.3

q: Repeat for the following compound: CC(C)=NNC(=O)c1ccc(N)cc1
a: 15

q: And what about the compound CCCOC(=O)C1C(c2ccc(OC)cc2)NC(c2ccc(OC)cc2)C(C(=O)OCCC)S1(=O)=O (configuration not stated) ?
a: -2.8

q: Try this compound too: CC(C)c1ccccc1O
a: 30.7

q: Now consider CCCCCP(=O)(O)O.[Cu+2] and answer again.
a: -39.6

* * *

- experiment.description: NCI Yeast Anticancer Drug Screen. Data for the sgs1 mgt1 strain (AID 161);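 note: 0% = growth of cultures given vehicle only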
- measurement.parameters: S. cerevisiae sgs1 mgt1 strain, hits give high values; at 50.0 µM unless noted
The panel holds about 79,000 compounds, 15% with a hit somewhere; the sample as a whole holds those more often.
measure.name: growth inhibition (%)
Numbers only here, please. The scale is %.

Examples with answers:
{"compound": "O=c1[nH]nc(Cc2ccccc2)n1CCO", "unit.abbreviation": "%", "growth inhibition": 18.1}
{"compound": "CCCCCCCCN1C(=O)CCC1=O", "unit.abbreviation": "%", "growth inhibition": -6.3}
{"compound": "CCn1c(=O)n(Cc2ccccc2)c(=O)c2ccccc21", "unit.abbreviation": "%", "growth inhibition": 24.8}
{"compound": "CC(C)(O)C(O)c1ccccc1 (stereo not drawn)", "unit.abbreviation": "%", "growth inhibition": 9.1}
{"compound": "CCC1=CCN(c2ccccn2)OC1c1ccc(OC)cc1 (stereo not drawn)", "unit.abbreviation": "%", "growth inhibition": 49.2}
{"compound": "COc1ccc(NC2Oc3cc4c(cc3C(c3cc(OC)c(O)c(OC)c3)C2C)OCO4)cc1 (stereo not drawn)", "unit.abbreviation": "%", "growth inhibition": -6.15}
{"compound": "CCCOC(=O)C1C(c2ccc(OC)cc2)NC(c2ccc(OC)cc2)C(C(=O)OCCC)S1(=O)=O (stereo not drawn)", "unit.abbreviation": "%", "growth inhibition": -21.6}
{"compound": "COC(=O)C1(C)CCCC2(C)c3cc(OC)ccc3C(=O)CC12 (stereo not drawn)", "unit.abbreviation": "%", "growth inhibition": 28}
{"compound": "Cc1ccc(-c2nc3ccc(Cl)cc3[nH]2)cc1", "unit.abbreviation": "%", "growth inhibition": 41.6}
{"compound": "CCCCCCCCCC=O", "unit.abbreviation": "%", "growth inhibition": -11.5}

q: Could you share which growth inhibition value was measured for C/C(=N\NC(=O)Nc1ccc(N=Nc2ccccc2)cc1)c1ccncc1 ?
a: 19.1

q: Also, CCCCCCCCCCCCCCCC[N+](C)(C)CC#N please.
a: 99.2

q: And what about the compound NC(Cc1ccc2nc3c4ccccc4c(=O)cc-3oc2c1)C(=O)O (stereo not drawn) ?
a: -14.6

* * *

- experiment.description: NCI Yeast Anticancer Drug Screen. Data for the mlh1 rad18 strain (AID 175)
- measurement.parameters: S. cerevisiae mlh1 rad18 strain growth inhibition, hits give high values; at 50.0 µM unless noted
About 79,000 compounds went through this panel and 15% of them were active in at least one assay; those are over-represented in the sample as a whole.
measure.name: growth inhibition (%)
Please state the figure in %; there is no need to write the unit.

Would you please look over these solved cases?
{"compound": "OC(COc1cccc(C(F)(F)F)c1)CN1CCN(c2cccc(F)c2)CC1 (configuration not stated)", "unit.abbreviation": "%", "recorded.number": 99}
{"compound": "CC(=O)Nc1c(C)cc([N+](=O)[O-])c2ccccc12", "unit.abbreviation": "%", "recorded.number": -13.3}
{"compound": "O=C1CCC(=O)N1CNc1cccc(NCN2C(=O)CCC2=O)c1", "unit.abbreviation": "%", "recorded.number": -4.6}
{"compound": "CCCC(=O)CC(=O)Nc1ccccc1", "unit.abbreviation": "%", "recorded.number": 11.2}

q: Record request: growth inhibition value, item O=[N+]([O-])c1cccc(S/N=C/c2ccccc2O)c1
a: 99

q: Next: CC(Oc1c(Cl)cc(Cl)cc1Cl)C(=O)O (configuration not stated)
a: -15.8

q: Consider next the compound CCc1ccc(NS(=O)(=O)c2ccc(OC)cc2)cc1 in the same way.
a: 75.7

q: Same read-out for Nc1cc(S(=O)(=O)O)cc2cc(S(=O)(=O)O)cc(S(=O)(=O)O)c12 ?
a: 23.4

q: Now this one: O=C(CCCC1CCCCC1)OC1CCCCC1
a: -1.3

q: NNC(=O)Cc1cccnc1 ?
a: 9.55

q: Can you check Cn1cnc2[nH]c(=O)[nH]c(=O)c21 next?
a: -0.75

q: Note, next up: CCOCNC(=O)NCC(F)(F)C(F)(F)C(F)(F)C(F)(F)C(F)(F)C(F)(F)C(F)(F)F
a: 12.9

* * *

Quick reference for growth inhibition among some compounds
- experiment.description: NCI Yeast Anticancer Drug Screen. Data for the cln2 rad14 strain (AID 165);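 note: 0% = growth equal to vehicle treated cultures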
- measurement.parameters: S. cerevisiae cln2 rad14 strain, hits give high values; at 50.0 µM unless noted
The panel holds about 79,000 compounds, 15% with a hit somewhere; the sample as a whole holds those more often.
Unit % implied. Number only.

{"compound": "O=C(CC1(O)C(=O)Nc2ccc(Br)cc21)c1ccc2c(c1)OCO2 (centres undefined)", "unit.abbreviation": "%", "growth inhibition": -6.5}
{"compound": "Cn1nnn(Cc2ccccc2)/c1=N/C(=S)Nc1ccccc1", "unit.abbreviation": "%", "growth inhibition": -7.45}
{"compound": "O=S1(=O)OCCOS(=O)(=O)C1(Br)Cc1ccccc1", "unit.abbreviation": "%", "growth inhibition": -40.4}
{"compound": "COc1nc(NC2OC(COC(C)=O)C(OC(C)=O)C(OC(C)=O)C2OC(C)=O)c(N=CC=Nc2c(NC3OC(COC(C)=O)C(OC(C)=O)C(OC(C)=O)C3OC(C)=O)nc(OC)[nH]c2=O)c(=O)[nH]1 (centres undefined)", "unit.abbreviation": "%", "growth inhibition": -16.8}
{"compound": "C/C=C/C(=O)Oc1ccc[nH]c1=O", "unit.abbreviation": "%", "growth inhibition": -2.15}
{"compound": "COC(=O)C1=CO[C@@H](OC2OC(CO)C(O)C(O)C2O)[C@H]2[C@@H]1C=C[C@@]21C=C([C@H](C)OC(=O)/C=C/c2ccc(OC3OC(CO)C(O)C(O)C3O)cc2)C(=O)O1 (some centres undefined)", "unit.abbreviation": "%", "growth inhibition": -6.15}
{"compound": "Cc1ccccc1C(=O)C[n+]1ccccc1C", "unit.abbreviation": "%", "growth inhibition": -21.6}
{"compound": "COc1cc2c(cc1OC)C(C(N)=O)NCC2 (centres undefined)", "unit.abbreviation": "%", "growth inhibition": 12.2}

// next item, growth inhibition requested
q: Any idea what its growth inhibition is? The compound is CC1=C(c2ccccc2)C(c2ccccc2)=C(C)C1=NNc1ccc([N+](=O)[O-])cc1[N+](=O)[O-]
a: 16.4
